ASSAY: Repeated dose 14-day toxicokinetics (TK) study
Format: in vivo, Sprague–Dawley rats
CONDITION CONTEXT: male, Sprague-Dawley, rat, in vivo, po, 100 mg/kg, male, day 1, 100 mg/kg bw
MEASURED ENDPOINT: AUC(0-inf)
Returns: string containing the numeric result and its unit.

Asked: Name the recorded AUC(0-inf) for O=C(NO)c1ccc(Cn2cc(-c3ccc(CN4CCCC4)cc3)nn2)cc1 [FNDR-20123] .
Given back: 1280 ng·h/mL

----------
ASSAY: Single dose pharmacokinetics in SCID mice
Format: in vivo
CONDITION CONTEXT: female, C.B-17/IcrHsd-Prkdc^scidLyst^bg (SCID), mouse, plasma; infected SCID mice, oral, 50 mg/Kg
Protocol: Female […] mice (n = 3) aged 7-8 weeks and weighing around 20 to 22 g were used for experimentation after a minimum 7 days of acclimation. Male BALB/c mice (n = 3) aged 8-10 weeks and weighing around 20 to 22 g were also used for experimentation after a minimum 7 days of acclimation. […] Feed was offered 2 h post-dose. […]
MEASURED ENDPOINT: AUC(0-t)

Asked: For the compound O=C(NO)c1ccc(Cn2cc(-c3ccc(CN4CCCC4)cc3)nn2)cc1 , what AUC(0-t) is on record?
Given back: 1340 ng·h/mL

----------
ASSAY: Repeated dose 14-day toxicokinetics (TK) study
Type: in vivo, Sprague–Dawley rats
CONDITION CONTEXT: male, Sprague-Dawley, rat, in vivo, po, 100 mg/kg, male, day 1, 100 mg/kg bw
MEASURED ENDPOINT: Tmax (min)
Numbers only; they are read as min.

Asked: Can you share its Tmax? I mean this compound: O=C(NO)c1ccc(Cn2cc(-c3ccc(CN4CCCC4)cc3)nn2)cc1 [FNDR-20123]
Given back: 19.8

----------
ASSAY: Repeated dose 14-day toxicokinetics (TK) study
Type: in vivo, Sprague–Dawley rats
CONDITION CONTEXT: female, Sprague-Dawley, rat, in vivo, po, 100 mg/kg, female, day 14, 100 mg/kg bw
MEASURED ENDPOINT: Tmax (min)
Express the result in min but write the number alone.

Asked: Requested field: Tmax. Item: O=C(NO)c1ccc(Cn2cc(-c3ccc(CN4CCCC4)cc3)nn2)cc1
Given back: 8.4

----------
ASSAY: Plasma protein binding
Assay type: in vitro ADME
CONDITION CONTEXT: human, plasma, Human; read-out: Plasma protein binding (% bound) (converted)
MEASURED ENDPOINT: fraction unbound

Asked: Given the compound O=C(NO)c1ccc(Cn2cc(-c3ccc(CN4CCCC4)cc3)nn2)cc1 , what is its reported fraction unbound?
Given back: 0.43

----------
ASSAY: Plasma protein binding
Assay type: in vitro ADME
CONDITION CONTEXT: mouse, read-out: Plasma protein binding (% bound)
MEASURED ENDPOINT: fraction unbound

Asked: What value of fraction unbound has been recorded for this entry: O=C(NO)c1ccc(Cn2cc(-c3ccc(CN4CCCC4)cc3)nn2)cc1 [FNDR-20123]
Given back: > 0.7

----------
ASSAY: Single dose pharmacokinetics in Balb/C mice
Format: in vivo
CONDITION CONTEXT: male, mouse, plasma, im; normal Balb/C mice, intramuscular, 50 mg/Kg
MEASURED ENDPOINT: Cmax (ng/mL)
Express your answer in ng/mL, writing the number without its unit.

Asked: Return reported Cmax; argument: O=C(NO)c1ccc(Cn2cc(-c3ccc(CN4CCCC4)cc3)nn2)cc1
Given back: 15700

meta.source: paper PMC7549214
